- Test Method Notes: Boiling temperature at pressure P
- Measurement Setup: 101.3 kPa; Liquid; Ebulliometric method (Recirculating still)
The compounds listed here are annotated with their Boiling temperature at pressure P.
// return numeric value only (unit: °C, not printed)

Study these solved cases before continuing.
CC(=O)OCC(C)C [2-methylpropyl ethanoate] :: 116.60
CCCCOC(=O)CC [butyl propanoate] :: 145.10
C=CCO [2-propenol] :: 96.8

Here is another compound to look at.
response.value for CCCCOC(C)=O [butyl ethanoate] (field: Boiling temperature at pressure P) = 126.00

These data points were gathered from the NIST ThermoML archive (doi:10.1021/acs.jced.7b01024).
